target: UniProtKB P30613; test: PKR WT enzymatic AC50 assay; format: biochemical; conditions: wild type PKR
Sequence (P30613 whole entry): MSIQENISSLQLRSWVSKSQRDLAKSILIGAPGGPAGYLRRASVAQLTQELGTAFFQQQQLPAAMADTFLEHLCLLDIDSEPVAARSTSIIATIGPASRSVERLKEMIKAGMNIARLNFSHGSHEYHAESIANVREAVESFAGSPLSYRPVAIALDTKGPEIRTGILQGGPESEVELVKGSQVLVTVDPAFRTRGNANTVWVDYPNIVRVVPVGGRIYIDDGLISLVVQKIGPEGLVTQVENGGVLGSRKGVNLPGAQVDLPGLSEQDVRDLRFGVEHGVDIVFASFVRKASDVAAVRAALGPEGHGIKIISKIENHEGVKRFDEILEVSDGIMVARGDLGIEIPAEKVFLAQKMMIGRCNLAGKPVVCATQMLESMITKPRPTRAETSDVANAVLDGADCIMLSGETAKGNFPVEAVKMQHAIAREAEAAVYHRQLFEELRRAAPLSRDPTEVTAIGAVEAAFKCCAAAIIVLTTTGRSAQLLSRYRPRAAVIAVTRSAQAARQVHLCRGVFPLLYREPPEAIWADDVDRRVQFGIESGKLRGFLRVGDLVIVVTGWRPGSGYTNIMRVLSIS
Reported AC50 by item:
assay.metric: AC50

In [3]: df
Out[3]:
                              sample_smiles             value
0  COc1cc(NS(=O)(=O)c2cccc3cccnc23)ccc1C(=O)N1CCC(O)(Cc2ccccc2)CC1          < 100 nM
1  COCCC1(O)CCN(C(=O)c2ccc(NS(=O)(=O)c3cccc4cccnc34)cc2)CC1          < 100 nM
2  COc1cccc(C2(O)CCN(C(=O)c3ccc(NS(=O)(=O)c4cccc5cccnc45)cc3)CC2)c1    101 to 1000 nM
3  O=C(c1ccc(NS(=O)(=O)c2cccc3cccnc23)cc1)N1CCC(O)(c2cccc(F)c2Cl)CC1          < 100 nM
4  O=C(c1ccc(NS(=O)(=O)c2cccc3nonc23)cc1)N1CCC(O)(Cc2ccccc2)CC1  1010 to 10000 nM
5  O=C(c1ccc(NS(=O)(=O)c2cccc(OC(F)(F)F)c2)cc1)N1CCC(O)(Cc2ccccc2)CC1  1010 to 10000 nM
6  O=C(c1ccc(NS(=O)(=O)c2cccc3cccnc23)cc1)N1CCC(O)(c2cccc(C(F)(F)F)n2)CC1          < 100 nM
7  CC(C)(C)C1(O)CCN(C(=O)c2ccc(NS(=O)(=O)c3cccc4cccnc34)cc2)CC1          < 100 nM
8  O=C(c1ccc(NS(=O)(=O)c2cccc3cccnc23)cc1)N1CCC(O)(CC2CC2)CC1          < 100 nM

Just for reference, patent US9108921B2 is where these values come from.
